System: T-380 tumors
Assay: Hapten biodistribution, premix protocol with bifunctional antibody ECH037.2
Format: in vivo, nude mice
Settings: 24 hours; premix with 20 µg ECH037.2; 111In-labeled hapten i.v.
Listed below: % DOSE PER GRAM, BLOOD values for each entry.
Response body: numeric value in % DOSE PER GRAM, unit text excluded.

Recorded results for 6 compounds are shown here.
CCCCNC(=S)Nc1ccc(CC(CN(CC(=O)O)CC(=O)O)N(CC(=O)O)CC(=O)O)cc1 (stereo not drawn): 9.0
O=C(O)CCCNC(=S)Nc1ccc(CC(CN(CC(=O)O)CC(=O)O)N(CC(=O)O)CC(=O)O)cc1 (stereo not drawn): 11.8
CC(=O)NC(CCCCNC(=S)Nc1ccc(CC(CN(CC(=O)O)CC(=O)O)N(CC(=O)O)CC(=O)O)cc1)C(N)=O (stereo not drawn): 11.0
O=C(O)Cc1ccc(NC(=S)Nc2ccc(CC(CN(CC(=O)O)CC(=O)O)N(CC(=O)O)CC(=O)O)cc2)cc1 (stereo not drawn): 6.2
NCCNC(=S)Nc1ccc(CC(CN(CC(=O)O)CC(=O)O)N(CC(=O)O)CC(=O)O)cc1 (stereo not drawn): 5.9
O=C(O)CN(CC(=O)O)CC(Cc1ccc(NC(=S)Nc2ccccc2)cc1)N(CC(=O)O)CC(=O)O (stereo not drawn): 8.9

Find the measured % DOSE PER GRAM, BLOOD: item O=C(O)CN(CC(=O)O)CC(Cc1ccc(NC(=S)NCCO)cc1)N(CC(=O)O)CC(=O)O (stereo not drawn) , target or system T-380 tumors.
9.3

Find the measured % DOSE PER GRAM, BLOOD: item O=C(O)CN(CC(=O)O)CC(Cc1ccc(NC(=S)NCc2ccccc2)cc1)N(CC(=O)O)CC(=O)O (stereo not drawn) , target or system T-380 tumors.
9.0

Find the measured % DOSE PER GRAM, BLOOD: item CCCCCCCCNC(=S)Nc1ccc(CC(CN(CC(=O)O)CC(=O)O)N(CC(=O)O)CC(=O)O)cc1 (stereo not drawn) , target or system T-380 tumors.
1.1

###

Tested on: T-380 tumors
Experiment: Hapten biodistribution, premix protocol with bifunctional antibody ECH037.2
Type: in vivo, nude mice
Conditions: 48 hours; premix with 20 µg ECH037.2
Excerpt: Two protocols were used for examining the biodistribution of the derivatized haptens in the presence of the bifunctional antibody ECH037.2. In a premix protocol, ECH037.2 and the derivatized hapten were combined prior to injection in the animals. […] Relative radioactive content of each organ was expressed as a percentage of injected dose per organ. […]
Listed below: % DOSE PER GRAM, KIDNEY values for each entry.
Response body: numeric value in % DOSE PER GRAM, unit text excluded.

Recorded results for 3 compounds are shown here.
O=C(O)Cc1ccc(NC(=S)Nc2ccc(CC(CN(CC(=O)O)CC(=O)O)N(CC(=O)O)CC(=O)O)cc2)cc1 (stereo not shown): 0.8
CCCCCCCCNC(=S)Nc1ccc(CC(CN(CC(=O)O)CC(=O)O)N(CC(=O)O)CC(=O)O)cc1 (stereo not shown): 0.2
NCCNC(=S)Nc1ccc(CC(CN(CC(=O)O)CC(=O)O)N(CC(=O)O)CC(=O)O)cc1 (stereo not shown): 2.5

Find the measured % DOSE PER GRAM, KIDNEY: item NC(=S)Nc1ccc(CC(CN(CC(=O)O)CC(=O)O)N(CC(=O)O)CC(=O)O)cc1 (stereo not shown) , target or system T-380 tumors.
1.1

Find the measured % DOSE PER GRAM, KIDNEY: item O=C(O)CN(CC(=O)O)CC(Cc1ccc(NC(=S)NCc2ccccc2)cc1)N(CC(=O)O)CC(=O)O (stereo not shown) , target or system T-380 tumors.
1.5

Find the measured % DOSE PER GRAM, KIDNEY: item CCCCNC(=S)Nc1ccc(CC(CN(CC(=O)O)CC(=O)O)N(CC(=O)O)CC(=O)O)cc1 (stereo not shown) , target or system T-380 tumors.
1.2

Find the measured % DOSE PER GRAM, KIDNEY: item O=C(O)CCCC(=O)NCCNC(=S)Nc1ccc(CC(CN(CC(=O)O)CC(=O)O)N(CC(=O)O)CC(=O)O)cc1 (stereo not shown) , target or system T-380 tumors.
1.5

Find the measured % DOSE PER GRAM, KIDNEY: item O=C(O)CN(CC(=O)O)CC(Cc1ccc(NC(=S)Nc2ccccc2)cc1)N(CC(=O)O)CC(=O)O (stereo not shown) , target or system T-380 tumors.
1.7

Find the measured % DOSE PER GRAM, KIDNEY: item CCNC(=S)Nc1ccc(CC(CN(CC(=O)O)CC(=O)O)N(CC(=O)O)CC(=O)O)cc1 (stereo not shown) , target or system T-380 tumors.
1.2

Find the measured % DOSE PER GRAM, KIDNEY: item CC(=O)NC(CCCCNC(=S)Nc1ccc(CC(CN(CC(=O)O)CC(=O)O)N(CC(=O)O)CC(=O)O)cc1)C(N)=O (stereo not shown) , target or system T-380 tumors.
1.9

Find the measured % DOSE PER GRAM, KIDNEY: item O=C(O)CN(CC(=O)O)CC(Cc1ccc(NC(=S)NCCO)cc1)N(CC(=O)O)CC(=O)O (stereo not shown) , target or system T-380 tumors.
1.4

Find the measured % DOSE PER GRAM, KIDNEY: item O=C(O)CCCNC(=S)Nc1ccc(CC(CN(CC(=O)O)CC(=O)O)N(CC(=O)O)CC(=O)O)cc1 (stereo not shown) , target or system T-380 tumors.
1.5

Find the measured % DOSE PER GRAM, KIDNEY: item O=C(O)CCNC(=S)Nc1ccc(CC(CN(CC(=O)O)CC(=O)O)N(CC(=O)O)CC(=O)O)cc1 (stereo not shown) , target or system T-380 tumors.
1.7

The reported measurements were obtained from patent EP0327365B1.
